Values compiled from patent US12240844B2.

# Test system: human DYRK1A and Tau
# method: Tau phosphorylation inhibition, ClariCELL Kinase Cell-Based Assay (Carnabio)
# study.conditions: 0.5 uM
Mark true for reported inhibition at 0.5 µM of 30% or greater; mark false for anything smaller.

Check if inhibition at 0.5 µM >= 30% (inclusive). Item: "O=C(c1ccc(Nc2cc(C3CC3)c3c(C(F)(F)F)c[nH]c3n2)c2c1OCCO2)N1CCN(C2COC2)CC1" false

###

Entries and their measured remaining binding at 1 µM follow.
# system.name: GAK (Homo sapiens)
# Construct: purchased DiscoverX
# Sequence (O14976 whole entry): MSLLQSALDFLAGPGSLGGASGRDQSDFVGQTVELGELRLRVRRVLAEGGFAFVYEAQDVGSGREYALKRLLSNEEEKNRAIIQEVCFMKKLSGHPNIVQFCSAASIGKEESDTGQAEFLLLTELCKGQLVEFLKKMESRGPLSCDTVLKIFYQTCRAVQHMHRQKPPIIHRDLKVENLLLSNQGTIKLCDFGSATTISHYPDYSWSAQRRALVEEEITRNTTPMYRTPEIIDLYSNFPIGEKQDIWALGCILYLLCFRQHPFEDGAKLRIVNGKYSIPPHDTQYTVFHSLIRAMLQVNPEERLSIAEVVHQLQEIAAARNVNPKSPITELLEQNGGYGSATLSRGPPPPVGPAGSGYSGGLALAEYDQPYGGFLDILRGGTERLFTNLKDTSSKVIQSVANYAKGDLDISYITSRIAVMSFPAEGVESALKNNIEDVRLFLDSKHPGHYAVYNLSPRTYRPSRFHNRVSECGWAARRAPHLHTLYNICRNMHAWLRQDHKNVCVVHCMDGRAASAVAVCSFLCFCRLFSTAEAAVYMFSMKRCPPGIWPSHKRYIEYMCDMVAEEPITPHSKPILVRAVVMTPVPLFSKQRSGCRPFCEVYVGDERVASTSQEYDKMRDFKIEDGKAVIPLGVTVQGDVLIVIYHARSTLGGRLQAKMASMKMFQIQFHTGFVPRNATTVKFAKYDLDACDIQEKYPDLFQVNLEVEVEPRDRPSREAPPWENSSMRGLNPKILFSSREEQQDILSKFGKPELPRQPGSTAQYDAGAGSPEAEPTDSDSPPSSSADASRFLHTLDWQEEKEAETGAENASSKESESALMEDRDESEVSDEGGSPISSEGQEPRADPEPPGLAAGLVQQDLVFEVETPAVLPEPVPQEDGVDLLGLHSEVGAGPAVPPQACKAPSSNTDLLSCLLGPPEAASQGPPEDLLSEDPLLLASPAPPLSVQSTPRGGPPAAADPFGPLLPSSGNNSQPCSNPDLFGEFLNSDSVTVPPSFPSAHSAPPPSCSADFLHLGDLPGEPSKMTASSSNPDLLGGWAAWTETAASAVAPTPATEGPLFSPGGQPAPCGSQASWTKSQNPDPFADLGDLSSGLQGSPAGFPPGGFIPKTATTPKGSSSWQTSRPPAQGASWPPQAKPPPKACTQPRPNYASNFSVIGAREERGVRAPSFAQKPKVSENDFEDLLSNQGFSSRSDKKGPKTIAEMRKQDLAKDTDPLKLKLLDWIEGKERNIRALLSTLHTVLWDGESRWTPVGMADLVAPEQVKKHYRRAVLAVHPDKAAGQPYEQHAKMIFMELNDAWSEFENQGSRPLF
# method: scanMAX Kinase panel (DiscoverX), % control
# Format: binding
# study.conditions: <35% = active
State the value with its unit after it.

Illustrative cases are given below, each with its answer.
CCCNc1cc(Nc2ccc(C(=O)N3CCC(N4CCOCC4)CC3)c3c2OCCO3)nc2[nH]cc(C(F)(F)F)c12 : 6.3%
CCNc1cc(Nc2ccc(P3(=O)CCN(C4CC4)CC3)cc2OC)nc2[nH]cc(C(F)(F)F)c12 : 29%
O=C(c1ccc(Nc2cc(C3CC3)c3c(C(F)(F)F)c[nH]c3n2)c2c1OCCO2)N1CCC(N2CCOCC2)CC1 : 12%
CNc1cc(Nc2ccc(P3(=O)CCN(C4CC4)CC3)cc2OC)nc2[nH]cc(C(F)(F)F)c12 : 12%
CNc1cc(Nc2ccc(C(=O)N3CCC(N4CCOCC4)CC3)c3c2OCCO3)nc2[nH]cc(C(F)(F)F)c12 : 6.3%

Now look at this one.
Any idea what its remaining binding at 1 µM is? The molecule is "CNc1cc(Nc2ccc(S(=O)(=O)N3CCC(N4CCOCC4)CC3)cc2OC)nc2[nH]cc(C(F)(F)F)c12" 27%

###

# Tested on: TNF-α
# method: TNF-α secretion inhibition in LPS-treated THP-1 cells (ELISA)
# Format: cell-based
# study.conditions: Homo sapiens, compound 0.5 μM, LPS 500 ng/ml, 24 hours, read-out: THP-1/TNF-a (% inhib)
experimental.readout: inhibition at 0.5 µM (%)
The response must be a number in % with no trailing unit.

Illustrative cases are given below, each with its answer.
CNc1cc(Nc2ccc(P3(=O)CCN(C4COC4)CC3)cc2OC)nc2[nH]cc(C(F)(F)F)c12 : 2.7
CNc1cc(Nc2ccc(C(=O)N3CCC(N4CCOCC4)CC3)c3c2OCC3)nc2[nH]cc(C(F)(F)F)c12 : 12.4
CCNc1cc(Nc2ccc(C(=O)N3CC[C@@H](N4CCOCC4)C3)c3c2OCC3)nc2[nH]cc(C(F)(F)F)c12 : 2.6
CCNc1cc(Nc2ccc(C(=O)N3CCC(N(C)C)CC3)c3c2OCC3)nc2[nH]cc(C(F)(F)F)c12 : 10.1
COc1cc(S(=O)(=O)N2CCC(N3CCOCC3)CC2)ccc1Nc1cc(NCCS(C)(=O)=O)c2c(C(F)(F)F)c[nH]c2n1 : 37.6

Any idea what its inhibition at 0.5 µM is? The compound is "CNc1cc(Nc2ccc(C(=O)N3CC[C@@H](N4CCOCC4)C3)c3c2OCC3)nc2[nH]cc(C(F)(F)F)c12" 12

Please give the result for "CCNc1cc(Nc2ccc(P3(=O)CCN(C(C)=O)CC3)cc2OC)nc2[nH]cc(C(F)(F)F)c12" too. 35.7

Please give the result for "CCNc1cc(Nc2ccc(P3(=O)CCN(C4CCOCC4)CC3)cc2OC)nc2[nH]cc(C(F)(F)F)c12" too. 6.6

Please give the result for "COCCNc1cc(Nc2ccc(P3(=O)CCN(C4CC4)CC3)cc2OC)nc2[nH]cc(C(F)(F)F)c12" too. 39.8

Please give the result for "CCNc1cc(Nc2ccc(C(=O)N3CCN(C4COC4)CC3)c3c2OCCO3)nc2[nH]cc(C(F)(F)F)c12" too. 5.9

Please give the result for "CCNc1cc(Nc2ccc(C(=O)N3CCN(CC4CC4)CC3)c3c2OCC3)nc2[nH]cc(C(F)(F)F)c12" too. 7.88

###

# system.name: DYRK1B (Homo sapiens, UniProt Q9Y463)
# Construct: purchased DiscoverX
# Sequence (Q9Y463 whole entry): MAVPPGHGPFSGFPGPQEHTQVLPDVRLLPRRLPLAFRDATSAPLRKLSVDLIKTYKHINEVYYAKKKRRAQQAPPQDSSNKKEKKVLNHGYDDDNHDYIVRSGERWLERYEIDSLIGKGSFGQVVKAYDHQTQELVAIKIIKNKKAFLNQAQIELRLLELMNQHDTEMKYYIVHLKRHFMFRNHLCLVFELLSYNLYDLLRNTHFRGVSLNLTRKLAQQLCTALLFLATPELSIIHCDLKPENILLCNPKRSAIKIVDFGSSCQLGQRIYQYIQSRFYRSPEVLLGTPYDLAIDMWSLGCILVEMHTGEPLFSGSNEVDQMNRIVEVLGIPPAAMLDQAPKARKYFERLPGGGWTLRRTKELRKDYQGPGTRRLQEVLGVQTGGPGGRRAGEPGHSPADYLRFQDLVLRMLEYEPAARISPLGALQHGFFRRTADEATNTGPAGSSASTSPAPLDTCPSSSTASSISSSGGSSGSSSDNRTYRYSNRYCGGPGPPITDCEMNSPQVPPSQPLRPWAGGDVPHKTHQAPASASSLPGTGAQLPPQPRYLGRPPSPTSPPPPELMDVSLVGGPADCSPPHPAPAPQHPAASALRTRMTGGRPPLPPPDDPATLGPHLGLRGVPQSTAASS
# method: scanMAX Kinase panel (DiscoverX), % control
# Type: binding
# study.conditions: <35% = active
Entries and their measured remaining binding at 1 µM follow.
The response must be a number in % with no trailing unit.

Illustrative cases are given below, each with its answer.
CCCNc1cc(Nc2ccc(C(=O)N3CCC(N4CCOCC4)CC3)c3c2OCCO3)nc2[nH]cc(C(F)(F)F)c12 : 0
O=C(c1ccc(Nc2cc(C3CC3)c3c(C(F)(F)F)c[nH]c3n2)c2c1OCCO2)N1CCC(N2CCOCC2)CC1 : 0.45
CNc1cc(Nc2ccc(C(=O)N3CC[C@H](N4CCOCC4)C3)c3c2OCC3)nc2[nH]cc(C(F)(F)F)c12 : 1.4
O=C(c1ccc(Nc2cc(C3CC3)c3c(C(F)(F)F)c[nH]c3n2)c2c1CCO2)N1CC[C@H](N2CCOCC2)C1 : 1.4

Any idea what its remaining binding at 1 µM is? The molecule is "CCNc1cc(Nc2ccc(C(=O)N3CCC(N4C[C@@H]5C[C@H]4CO5)CC3)c3c2OCC3)nc2[nH]cc(C(F)(F)F)c12" 0.9

###

# system.name: LRRK2 (G2019S) (Homo sapiens, UniProt Q5S007, G2019S)
# Sequence (Q5S007 970-2527 G2019S limits assumed): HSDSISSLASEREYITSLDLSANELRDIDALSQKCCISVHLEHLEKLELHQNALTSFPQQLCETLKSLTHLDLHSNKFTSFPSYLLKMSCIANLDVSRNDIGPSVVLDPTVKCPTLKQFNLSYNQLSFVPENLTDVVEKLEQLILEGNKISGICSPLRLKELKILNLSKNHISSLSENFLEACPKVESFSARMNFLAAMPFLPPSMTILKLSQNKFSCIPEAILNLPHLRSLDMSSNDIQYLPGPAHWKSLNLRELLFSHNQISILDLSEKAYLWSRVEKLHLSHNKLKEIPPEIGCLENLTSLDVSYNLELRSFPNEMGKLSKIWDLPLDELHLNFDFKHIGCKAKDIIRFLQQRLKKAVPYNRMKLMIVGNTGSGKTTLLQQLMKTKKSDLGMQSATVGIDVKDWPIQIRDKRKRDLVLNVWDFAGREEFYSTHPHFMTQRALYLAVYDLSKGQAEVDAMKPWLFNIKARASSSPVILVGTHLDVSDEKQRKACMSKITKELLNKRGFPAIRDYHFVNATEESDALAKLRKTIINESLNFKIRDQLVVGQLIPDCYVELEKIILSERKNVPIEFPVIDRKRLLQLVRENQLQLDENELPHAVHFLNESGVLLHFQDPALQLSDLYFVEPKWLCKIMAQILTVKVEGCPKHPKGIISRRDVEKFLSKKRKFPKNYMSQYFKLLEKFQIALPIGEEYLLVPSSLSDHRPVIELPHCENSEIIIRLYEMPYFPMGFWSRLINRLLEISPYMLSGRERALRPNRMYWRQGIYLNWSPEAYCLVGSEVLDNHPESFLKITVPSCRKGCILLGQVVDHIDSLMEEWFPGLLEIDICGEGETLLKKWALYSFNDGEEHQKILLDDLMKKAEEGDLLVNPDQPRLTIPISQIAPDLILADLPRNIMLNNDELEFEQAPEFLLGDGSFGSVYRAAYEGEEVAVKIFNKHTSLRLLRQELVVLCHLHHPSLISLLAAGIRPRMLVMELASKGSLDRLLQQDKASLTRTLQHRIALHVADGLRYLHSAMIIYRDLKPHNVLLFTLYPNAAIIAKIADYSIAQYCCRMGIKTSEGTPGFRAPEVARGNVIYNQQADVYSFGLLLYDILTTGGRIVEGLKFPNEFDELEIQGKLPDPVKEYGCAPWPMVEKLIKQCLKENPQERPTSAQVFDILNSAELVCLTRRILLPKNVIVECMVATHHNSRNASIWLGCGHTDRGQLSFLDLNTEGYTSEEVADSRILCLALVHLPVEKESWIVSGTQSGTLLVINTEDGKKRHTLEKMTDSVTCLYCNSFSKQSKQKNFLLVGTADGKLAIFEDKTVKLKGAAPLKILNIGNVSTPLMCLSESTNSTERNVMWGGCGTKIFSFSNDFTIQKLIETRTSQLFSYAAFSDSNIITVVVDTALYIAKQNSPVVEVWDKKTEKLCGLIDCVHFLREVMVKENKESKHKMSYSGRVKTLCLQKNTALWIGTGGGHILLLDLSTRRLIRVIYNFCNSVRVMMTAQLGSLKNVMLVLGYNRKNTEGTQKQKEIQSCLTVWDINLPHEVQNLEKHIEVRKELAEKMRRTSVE
# method: LRRK2 G2019S enzyme inhibition, ADP-Glo kinase assay
experimental.readout: IC50

O=C(c1ccc(Nc2cc(NC3CC3)c3c(Cl)c[nH]c3n2)c2c1OCCO2)N1CCOCC1 : < 100 nM
CNc1cc(Nc2ccc(S(C)(=O)=O)cc2OC)nc2[nH]cc(C#N)c12 : < 100 nM
COc1cc(S(C)(=O)=O)ccc1Nc1cc(NC2CCC2)c2c(C#N)c[nH]c2n1 : 101 to 300 nM

Now look at this one.
Any idea what its IC50 is? The compound is "COCCNc1cc(Nc2ccc(S(=O)(=O)N3CCC(N4CCOCC4)CC3)c3c2OCCO3)nc2[nH]cc(C(F)(F)F)c12" < 100 nM

###

# system.name: LRRK2 (G2019S) (Homo sapiens, UniProt Q5S007, G2019S)
# method: LRRK2 G2019S enzyme inhibition, ADP-Glo kinase assay
pIC50: −log10 of the molar value. Where a name gives a salt, the structure may show the parent alone.
Entries and their measured pIC50 follow.

Illustrative cases are given below, each with its answer.
O=C(c1ccc(Nc2cc(NC3CC3)c3c(C(F)(F)F)c[nH]c3n2)c2c1OCCO2)N1CCOCC1 [Example 155, trifluoroacetate] : 6.52 to 7.00
COc1cc(S(C)(=O)=O)ccc1Nc1cc(NC2CC2)c2c(C(F)(F)F)c[nH]c2n1 [Example 187] : 6.00 to 6.52
CCNc1cc(Nc2ccc(C(=O)N3CCC(N4CCN(C5CC5)CC4)CC3)c3c2OCC3)nc2[nH]cc(C(F)(F)F)c12 [Example 264] : > 7.00

Now look at this one.
Any idea what its pIC50 is? The compound is COc1cc(S(C)(=O)=O)ccc1Nc1cc(NC2CCC2)c2c(Cl)c[nH]c2n1 [Example 85] 6.00 to 6.52

###

# system.name: LRRK2 (G2019S) (Homo sapiens, UniProt Q5S007, G2019S)
# method: LRRK2 G2019S enzyme inhibition, ADP-Glo kinase assay
Entries and their measured IC50 follow.

COc1cc(S(=O)(=O)N2CCOCC2)ccc1Nc1cc(NC2CCC2)c2c(C#N)c[nH]c2n1 : 301 to 1000 nM
CCNc1cc(Nc2ccc(P(C)(=O)N3CCC(N4CCOCC4)CC3)cc2OC)nc2[nH]cc(C(F)(F)F)c12 (stereo not shown) : < 100 nM
CCNc1cc(Nc2ccc(S(C)(=O)=O)cc2OC)nc2[nH]ccc12 : < 100 nM
CCNc1cc(Nc2ccc(C(=O)N3CCN(C(C)C)CC3)c3c2OCC3)nc2[nH]cc(C(F)(F)F)c12 : < 100 nM
COc1cc(S(=O)(=O)N2CCOCC2)ccc1Nc1cc(NC2CC2)c2c(Cl)c[nH]c2n1 : 301 to 1000 nM
CNc1cc(Nc2ccc(S(=O)(=O)N3CCC(N4CCOCC4)CC3)cc2OC)nc2[nH]cc(C#N)c12 : < 100 nM

Now look at this one.
Any idea what its IC50 is? The molecule is "CCCNc1cc(Nc2ccc(C(=O)N3CCC(N4CCOCC4)CC3)c3c2OCCO3)nc2[nH]cc(C#N)c12" < 100 nM

###

Entries and their measured remaining binding at 1 µM follow.
# system.name: CLK4 (Homo sapiens, UniProt Q9HAZ1)
# Construct: purchased DiscoverX
# Sequence (Q9HAZ1 whole entry): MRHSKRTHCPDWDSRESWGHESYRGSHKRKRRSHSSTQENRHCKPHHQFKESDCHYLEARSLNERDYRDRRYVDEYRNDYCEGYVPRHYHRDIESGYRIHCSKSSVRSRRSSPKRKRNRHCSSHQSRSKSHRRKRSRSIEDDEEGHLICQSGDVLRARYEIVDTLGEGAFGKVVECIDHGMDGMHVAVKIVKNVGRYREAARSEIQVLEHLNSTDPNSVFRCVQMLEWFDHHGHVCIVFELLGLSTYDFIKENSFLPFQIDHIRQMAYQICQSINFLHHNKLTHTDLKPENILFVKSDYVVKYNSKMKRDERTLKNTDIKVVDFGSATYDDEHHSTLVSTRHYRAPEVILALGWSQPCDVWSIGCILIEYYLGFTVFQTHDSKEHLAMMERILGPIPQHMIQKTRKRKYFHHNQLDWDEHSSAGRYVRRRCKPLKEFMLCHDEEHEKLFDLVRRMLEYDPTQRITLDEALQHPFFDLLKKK
# method: scanMAX Kinase panel (DiscoverX), % control
# Format: binding
# study.conditions: <35% = active
The response must be a number in % with no trailing unit.

CCNc1cc(Nc2ccc(S(=O)(=O)N3CCC(N4CCOCC4)CC3)c3c2OCCO3)nc2[nH]cc(C(F)(F)F)c12 [Example 96] : 0.3
O=C(c1ccc(Nc2cc(C3CC3)c3c(C(F)(F)F)c[nH]c3n2)c2c1OCCO2)N1CCC(N2CCOCC2)CC1 [Example 221] : 0.25
CNc1cc(Nc2ccc(C(=O)N3CCC(N4CCOCC4)CC3)c3c2OCCO3)nc2[nH]cc(C(F)(F)F)c12 [Example 160] : 0.55

Any idea what its remaining binding at 1 µM is? The compound is CCNc1cc(Nc2ccc(P3(=O)CCN(C4CC4)CC3)cc2OC)nc2[nH]cc(C(F)(F)F)c12 [Example 206] 1.2

Please give the result for O=C(c1ccc(Nc2cc(C3CC3)c3c(C(F)(F)F)c[nH]c3n2)c2c1CCO2)N1CC[C@@H](N2CCOCC2)C1 [Example 238] too. 0.35

Please give the result for CCCNc1cc(Nc2ccc(C(=O)N3CCC(N4CCOCC4)CC3)c3c2OCCO3)nc2[nH]cc(C(F)(F)F)c12 [Example 162] too. 0.55

Please give the result for CCNc1cc(Nc2ccc(C(=O)N3CCC(N4C[C@@H]5C[C@H]4CO5)CC3)c3c2OCC3)nc2[nH]cc(C(F)(F)F)c12 [Example 105] too. 5.5
